The reported numbers originate from patent US7745587.

biological target: T1, human MMP-14 (human, UniProt P50281 112-541, limits assumed); assay: enzymatic assay, IgG, 2 nM MMP-14, peptide substrate at 10, 14, 18 µM; highest Ki measured
T1 construct: Soluble MMP-14 used in selection, ELISA (biotinylated) and enzymatic assays; also called hMMP-14; bhMMP-14 (biotinylated human MMP-14)
Measured Ki of individual entries
Give the number; nM is assumed, so skip it.

[[record]]
binder = "M0037-D01 IgG (antibody, V domains shown, IgG of the Fab) VH: EVQLLESGGGLVQPGGSLRLSCAASGFTFSMYMMIWVRQAPGKGLEWVSSIYPSGGNTMYADSVKGRFTISRDNSKNTLYLQMNSLRAEDTAVYYCATGVLRYFDWDAGSGMDVWGQGTTVTVSS VL: DIQMTQSPSSLSASVGDRVTITCRASQGIRNDLGWYQQKPGKAPKRLIYVASSLQSGVPSRFSGSGSGTEFTLTISSLQPEDFATYYCLQHNSYPWTFGQGTKVEIK"
numeric_readout = 2.9


Item: M0043-G02 IgG (antibody, V domains shown, IgG of the Fab) VH: EVQLLESGGGLVQPGGSLRLSCAASGFTFSWYPMFWVRQAPGKGLEWVSGIYSSGGPTDYADSVKGRFTISRDNSKNTLYLQMNSLRAEDTAVYYCAKDTLGRYYDFWSGYSYGMDVWGQGTTVTVSS VL: DIQMTQSPGTLSLSPGERATLSCRASQSVSSSYLAWYQQKPGQAPRLLIYGASSRATGIPDRFSGSGSGTDFTLTISRLEPEDFAVYYCQSGVTFGGGTKVEIK | Ki: 1.2
